assayed_target: human SNAP-tagged GIPR (Homo sapiens)
Construct: host or cells: HEK293A
Sequence (P48546 22-466): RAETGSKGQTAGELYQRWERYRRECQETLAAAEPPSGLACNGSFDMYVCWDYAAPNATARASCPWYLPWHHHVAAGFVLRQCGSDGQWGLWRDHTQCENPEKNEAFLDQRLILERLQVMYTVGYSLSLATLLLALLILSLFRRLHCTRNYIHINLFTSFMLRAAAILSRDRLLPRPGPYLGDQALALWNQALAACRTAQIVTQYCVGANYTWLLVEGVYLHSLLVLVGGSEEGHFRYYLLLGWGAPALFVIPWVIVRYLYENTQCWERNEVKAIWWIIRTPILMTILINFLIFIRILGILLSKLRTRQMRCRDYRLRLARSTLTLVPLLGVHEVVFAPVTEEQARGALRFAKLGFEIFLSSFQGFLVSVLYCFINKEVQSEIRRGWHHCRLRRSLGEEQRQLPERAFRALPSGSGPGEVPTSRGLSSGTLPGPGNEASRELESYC
procedure_text: Receptor internalization assay, HEK293A cells expressing human SNAP-tagged GIPR
Format: cell-based
conditions_used: AUC of sigmoid curves up to 1 μM; 60 minutes at 37° C.
*1 amine or outer side, *2 acyl side, *3 side chain or, on linkers, in order; H or OH if unused. Where no end group is shown, it is not given here. Side-chain parts run from the residue outwards. [ ]: non-standard residue; d: D form. The star is where a group is joined. C18 diacid = O=C(O)CCCCCCCCCCCCCCCCC(=O)*; γGlu = O=C(O)[C@H](CCC(=O)[*:2])N[*:1]; AEEA = NCCOCCOCC(=O)O; Aib = CC(C)(N)C(=O)O
Rule: Absolute hGIPR internalization (AUC) under 10 gives FALSE, otherwise TRUE.

As a guide, the following entries are already answered.
HADGTFTSDYSTILDKLAARDFINWLIQTKGKKNDWKHNITQK([AEEA-AEEA-γGlu-C18 diacid])-OH [Compound 26] = TRUE
HADGTFTSDYSTILDKLAARDFINWLIQTKGKK([AEEA-AEEA-γGlu-C18 diacid])NDWKHNITQ-OH [Compound 24] = TRUE
HADGTFTSDYSIILDK([AEEA-AEEA-γGlu-C18 diacid])LAARDFINWLIQTKGKKNDWKHNITQ-OH [Compound 20] = TRUE
H-HADGTFTSDYSTILDKLAARDFINWLIQTKGKKNDWK([AEEA-AEEA-γGlu-C18 diacid])HNITQ-OH [Compound 25] = TRUE
HADGTFTSDYST[Aib]LDK([AEEA-AEEA-γGlu-C18 diacid])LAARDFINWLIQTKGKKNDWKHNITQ-OH [Compound 22] = FALSE

**Q:** Does HADGTFTSDYST[Aib]LDKLAARDFINWLIQTKGKKNDWKHNITQK([AEEA-AEEA-γGlu-C18 diacid])-OH [Compound 27] have a reported Absolute hGIPR internalization (AUC) of at least 10?
**A:** FALSE

All values here come from patent US20250304644A1.
